method description: Octanol-water partition coefficient, log P of the compound at pH 7.4 after 24 hrs by shake flask method
Assay type: physicochemical
experimental endpoint: logD at 24 h
Answer field: number only, no words.

{"columns": ["compound", "test value"],
 "data": [
  ["CCC1Oc2ccc(Cl)cc2C2CC(C)=NN2C1=O (configuration not stated)", 1.05],
  ["CCC1Oc2ccc(Br)cc2C2CC(C)=NN2C1=O (configuration not stated)", 1.11],
  ["CC1=NN2C(=O)C(C)Oc3c(Cl)cc(Cl)cc3C2C1 (configuration not stated)", 2.49]
]}

For record CCC1Oc2c(Cl)cc(Cl)cc2C2CC(C)=NN2C1=O (configuration not stated) the listed logD at 24 h is 1.12

// field: logD at 24 h; key: CCC1Oc2c(Br)cc(Br)cc2C2CC(C)=NN2C1=O (configuration not stated) ; value = 1.08

Field logD at 24 h (entry CCC1Oc2c(Br)cc(Cl)cc2C2CC(C)=NN2C1=O (configuration not stated) ) reads 1.57

get_value(item= CC1=NN2C(=O)C(C)Oc3c(Br)cc(Cl)cc3C2C1 (configuration not stated) , readout=logD at 24 h) returns 2.18

====

system tested: acetylcholinesterase (AChE) (Electrophorus electricus)
Sequence (O42275 whole entry): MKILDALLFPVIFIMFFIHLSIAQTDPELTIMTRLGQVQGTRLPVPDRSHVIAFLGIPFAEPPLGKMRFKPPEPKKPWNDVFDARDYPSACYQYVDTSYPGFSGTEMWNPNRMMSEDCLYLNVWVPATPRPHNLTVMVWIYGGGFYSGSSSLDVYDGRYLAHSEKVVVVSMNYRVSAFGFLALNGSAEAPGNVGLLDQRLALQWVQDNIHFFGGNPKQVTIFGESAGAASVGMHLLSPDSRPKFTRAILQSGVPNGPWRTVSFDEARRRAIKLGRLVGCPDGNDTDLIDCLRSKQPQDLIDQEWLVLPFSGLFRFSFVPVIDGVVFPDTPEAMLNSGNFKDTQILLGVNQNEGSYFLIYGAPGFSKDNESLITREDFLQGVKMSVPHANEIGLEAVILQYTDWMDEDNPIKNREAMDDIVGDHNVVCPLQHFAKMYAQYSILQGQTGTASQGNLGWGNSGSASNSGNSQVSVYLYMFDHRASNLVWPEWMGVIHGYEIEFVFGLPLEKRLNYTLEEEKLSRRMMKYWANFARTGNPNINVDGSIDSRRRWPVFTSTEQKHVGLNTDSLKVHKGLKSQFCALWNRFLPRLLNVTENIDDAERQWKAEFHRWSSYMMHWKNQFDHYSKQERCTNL
method description: Inhibition of electric eel AChE at 20 uM using acetylthiocholine iodide as substrate preincubated for 20 mins followed by substrate addition and measured after 20 mins by Ellman's method relative to control
assay setup: electric eel acetylcholinesterase enzyme, probe acetylthiocholine iodide
Reported inhibition at 20 min, 20 µM is given for each of the following compounds.
The reply should contain only the number, in %.

Study these solved cases before continuing.
{"columns": ["compound", "unit info", "inhibition at 20 min, 20 µM"],
 "data": [
  ["CCC1Oc2c(Cl)cc(Cl)cc2C2CC(C)=NN2C1=O (stereo not drawn)", "%", 26],
  ["COc1cccc2c1OCC(=O)N1N=C(C)CC21 (stereo not drawn)", "%", 34],
  ["CCC1Oc2c(Br)cc(Br)cc2C2CC(C)=NN2C1=O (stereo not drawn)", "%", 41],
  ["CC1=NN2C(=O)C(C)Oc3ccc(Br)cc3C2C1 (stereo not drawn)", "%", 23]
]}

Record O=C1COc2ccc(Br)cc2C2CC(c3ccco3)=NN12 (stereo not drawn) , field inhibition at 20 min, 20 µM: 25

What the record says about CC1=NN2C(=O)COc3c(Cl)cc(Cl)cc3C2C1 (stereo not drawn) : inhibition at 20 min, 20 µM is 25

Value of measured inhibition at 20 min, 20 µM for the entry CC1=NN2C(=O)C(C)Oc3ccc(C)cc3C2C1 (stereo not drawn) : 22

Record CC1=NN2C(=O)COc3ccc(Cl)cc3C2C1 (stereo not drawn) , field inhibition at 20 min, 20 µM: 2

====

system tested: Cholinesterase (Equus caballus)
method description: Inhibition of equine serum BuChE at 20 uM using butyrylthiocholine iodide as substrate preincubated for 20 mins followed by substrate addition and measured after 20 mins by Ellman's method relative to control
Active and inactive are the calls of the source. No cut-off for these calls is given here.
experimental endpoint: inhibition

{"columns": ["compound", "experimental endpoint", "test value"],
 "data": [
  ["CC1=NN2C(=O)COc3ccc(Br)cc3C2C1 (stereo unspecified)", "inhibition", "inactive"],
  ["COc1cccc2c1OC(C)C(=O)N1N=C(C)CC21 (stereo unspecified)", "inhibition", "inactive"],
  ["CC1Oc2c(Br)cc(Br)cc2C2CC(c3ccc(F)cc3)=NN2C1=O (stereo unspecified)", "inhibition", "inactive"],
  ["CCC1Oc2ccc(Br)cc2C2CC(C)=NN2C1=O (stereo unspecified)", "inhibition", "39%"],
  ["CC1Oc2c(Cl)cc(Cl)cc2C2CC(c3ccco3)=NN2C1=O (stereo unspecified)", "inhibition", "23%"]
]}

CC1=NN2C(=O)COc3ccc(C)cc3C2C1 (stereo unspecified) on Cholinesterase (Equus caballus) gives inhibition = inactive
